system: HIV patient isolates (AO18); assay: Plaque assay, HeLa-CD4 cells infected with patient isolates (AO18); assay type: cell-based, HIV; HeLa-CD4 cells; conditions: AZT Sensitive, plaques formed
testReadout: IC50 (nM)
Quick note: give the figure in nM, leave out the unit.

Ask | // IC50 lookup, key: CTTCGGGCCTGTCGGGTCCCCTCGGG (CTTCGGGCCTGTCGGGTCCCCTCGGG; chemistry not given here) [SEQ. ID. NO. 18]
Reply | 80

---

tested on: replication defective HIV generated by 8e5 cells; experiment: p24 production by 8e5 cells (p24 capture ELISA of cell lysates); type: cell-based, HIV; human T-cell line 8e5; settings: 10 μM, Table 3 (small length oligonucleotides)
Hi there, I'd appreciate the recorded % p24 production for every entry that follows.
Quick note: give the figure in %, leave out the unit.

Ask | // % p24 production lookup, key: GCCTGTCGGG TCCC (GCCTGTCGGGTCCC; chemistry not given here) [SEQ. ID. NO. 22]
Reply | 3

Ask | // % p24 production lookup, key: ATTCTGCTATGTCGACACCCAA (ATTCTGCTATGTCGACACCCAA; chemistry not given here) [SEQ. ID. NO. 46]
Reply | 87

Ask | // % p24 production lookup, key: GGGCCTGTCGGGTCCCCTCGGG (GGGCCTGTCGGGTCCCCTCGGG; chemistry not given here) [SEQ. ID. NO. 29]
Reply | 79

Ask | // % p24 production lookup, key: GCCTGTCGGG TCCT (GCCTGTCGGGTCCT; chemistry not given here) [SEQ. ID. NO. 20]
Reply | 55
